# assayed.system: Canton G6PD (Homo sapiens, UniProt P11413, R459L)
# Construct: His (pET-28a) (N, cleaved yes); made in house; host or cells: E. coli C43 (DE3)
# Sequence (P11413 whole entry R459L): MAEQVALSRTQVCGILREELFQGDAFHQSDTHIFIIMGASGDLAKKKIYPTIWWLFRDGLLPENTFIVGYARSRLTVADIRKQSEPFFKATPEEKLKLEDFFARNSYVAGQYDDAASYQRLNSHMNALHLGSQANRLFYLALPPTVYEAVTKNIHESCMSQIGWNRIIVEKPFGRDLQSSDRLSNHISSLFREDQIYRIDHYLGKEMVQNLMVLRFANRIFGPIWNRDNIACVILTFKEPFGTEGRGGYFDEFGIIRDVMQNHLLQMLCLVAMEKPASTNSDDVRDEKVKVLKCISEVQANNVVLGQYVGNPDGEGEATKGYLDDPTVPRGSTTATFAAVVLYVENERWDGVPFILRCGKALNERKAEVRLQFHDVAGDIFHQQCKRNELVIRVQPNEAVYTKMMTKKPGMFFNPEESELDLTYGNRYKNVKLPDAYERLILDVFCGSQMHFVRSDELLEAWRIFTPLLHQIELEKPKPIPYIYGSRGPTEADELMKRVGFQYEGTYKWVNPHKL
# procedure.details: Canton G6PD enzyme activity, diaphorase-coupled assay
# Type: biochemical
# measurement.context: read-out: EC50 of activation of Canton G6PD
pEC50: −log10 of the molar value.
measurement.label: pEC50

Query :: Return the recorded pEC50 value; entry: `SCCNCCc1c[nH]c2ccccc12`
Result :: ~5.52
